# Test system: human red blood cells (hRBC)
# Type: cell-based
# Assay setup: red cells of human, 1 h
Where a SMILES comes first, the peptide text is derived from it. [ ]: non-standard residue; d: D form. Cha = N[C@@H](CC1CCCCC1)C(=O)O; Chg = N[C@H](C(=O)O)C1CCCCC1; Tle = CC(C)(C)[C@H](N)C(=O)O; dDab = NCC[C@@H](N)C(=O)O; Orn = NCCC[C@H](N)C(=O)O; Dab = NCC[C@H](N)C(=O)O; Nva = CCC[C@H](N)C(=O)O
Each entry below carries its recorded Hemolysis at 100 μg/ml.
Property name: Hemolysis at 100 μg/ml (%)

Compound	Property name	Measured result
CCC[C@@H]1NC(=O)[C@@H]2CCCN2C(=O)[C@H]2CCCN2C(=O)[C@H](CO)NC(=O)[C@H](C)NC(=O)[C@H](C(C)(C)C)NC(=O)[C@H](CCN)NC(=O)[C@H](Cc2c[nH]c3ccccc23)NC(=O)[C@H](CCN)NC(=O)[C@@H](CCN)NC(=O)[C@H](CCCN)NC(=O)[C@H](CCN)NC(=O)[C@H](Cc2ccc(O)cc2)NC(=O)[C@H](Cc2c[nH]cn2)NC1=O [compound 8] (cyclo([Nva]HY[Dab][Orn][dDab][Dab]W[Dab][Tle]AS[dP]P))	Hemolysis at 100 μg/ml	1
CC[C@H](C)[C@@H]1NC(=O)[C@@H]2CCCN2C(=O)[C@H]2CCCN2C(=O)[C@H](CO)NC(=O)[C@H](C)NC(=O)[C@H](CC2CCCCC2)NC(=O)[C@H](CCN)NC(=O)[C@H](Cc2c[nH]c3ccccc23)NC(=O)[C@H](CCN)NC(=O)[C@@H](CCN)NC(=O)[C@H](CCCCN)NC(=O)[C@H](CCN)NC(=O)[C@H](C(C)(C)C)NC(=O)[C@H](Cc2c[nH]c3ccccc23)NC1=O [compound 35] (cyclo(IW[Tle][Dab]K[dDab][Dab]W[Dab][Cha]AS[dP]P))	Hemolysis at 100 μg/ml	1
CC(C)C[C@@H]1NC(=O)[C@@H]2CCCN2C(=O)[C@H]2CCCN2C(=O)[C@H](CO)NC(=O)[C@H](C)NC(=O)[C@H](C2CCCCC2)NC(=O)[C@H](CCN)NC(=O)[C@H](Cc2c[nH]c3ccccc23)NC(=O)[C@H](CCN)NC(=O)[C@@H](CCN)NC(=O)[C@H](CCCN)NC(=O)[C@H](CCN)NC(=O)[C@H](Cc2ccc(O)cc2)NC(=O)[C@H](Cc2c[nH]cn2)NC1=O [compound 23] (cyclo(LHY[Dab][Orn][dDab][Dab]W[Dab][Chg]AS[dP]P))	Hemolysis at 100 μg/ml	3
C[C@@H]1NC(=O)[C@H](C2CCCCC2)NC(=O)[C@H](CCN)NC(=O)[C@H](Cc2c[nH]c3ccccc23)NC(=O)[C@H](CCN)NC(=O)[C@@H](CCN)NC(=O)[C@H](CCCCN)NC(=O)[C@H](CCN)NC(=O)[C@H](CC2CCCCC2)NC(=O)[C@H](Cc2c[nH]c3ccccc23)NC(=O)[C@H](Cc2c[nH]c3ccccc23)NC(=O)[C@@H]2CCCN2C(=O)[C@H]2CCCN2C(=O)[C@H](CO)NC1=O [compound 10] (cyclo(WW[Cha][Dab]K[dDab][Dab]W[Dab][Chg]AS[dP]P))	Hemolysis at 100 μg/ml	1
CCC[C@@H]1NC(=O)[C@H](CCN)NC(=O)[C@H](Cc2c[nH]c3ccccc23)NC(=O)[C@H](CCN)NC(=O)[C@@H](CCN)NC(=O)[C@H](CCCN)NC(=O)[C@H](CCN)NC(=O)[C@H](CC2CCCCC2)NC(=O)[C@H](Cc2c[nH]cn2)NC(=O)[C@H](Cc2c[nH]c3ccccc23)NC(=O)[C@@H]2CCCN2C(=O)[C@H]2CCCN2C(=O)[C@H](CO)NC(=O)[C@H](C)NC1=O [compound 3] (cyclo(WH[Cha][Dab][Orn][dDab][Dab]W[Dab][Nva]AS[dP]P))	Hemolysis at 100 μg/ml	3
